The reported numbers originate from ChEMBL document CHEMBL3885861.

species on record: Rattus norvegicus; experiment: Open TG-GATES - Regimen: Daily Repeat; type: toxicity, organism-based, Sprague-Dawley; set-up: regimen Daily Repeat, gender Male, age 6 weeks; conditions: in vivo, po, 100 mg/kg, 72 h, tissue Plasma, route gavage, dose level Low, time 3 day
property: Ca (mg/dL)
Supply the numeric figure in mg/dL, leaving out any unit text.

Example results:
molecule	u	observed-value
CCOc1ccc(NC(C)=O)cc1 [PHENACETIN]	mg/dL	11.2
CN/C(=N/CCSCc1nc[nH]c1C)NC#N [CIMETIDINE]	mg/dL	10.9
O=C(OC[C@H]1O[C@@H](OC(=O)c2cc(O)c(O)c(OC(=O)c3cc(O)c(O)c(O)c3)c2)[C@H](OC(=O)c2cc(O)c(O)c(OC(=O)c3cc(O)c(O)c(O)c3)c2)[C@@H](OC(=O)c2cc(O)c(O)c(OC(=O)c3cc(O)c(O)c(O)c3)c2)[C@@H]1OC(=O)c1cc(O)c(O)c(OC(=O)c2cc(O)c(O)c(O)c2)c1)c1cc(O)c(O)c(OC(=O)c2cc(O)c(O)c(O)c2)c1 [TANNIC ACID]	mg/dL	11
Cc1nnc2n1-c1ccc(Cl)cc1C(c1ccccc1Cl)=NC2 [TRIAZOLAM]	mg/dL	11.1
COC(=O)C1=C(C)NC(C)=C(C(=O)OC)C1c1ccccc1[N+](=O)[O-] [NIFEDIPINE]	mg/dL	10.9

stdin: Provide one value: measured Ca of CNC(=C[N+](=O)[O-])NCCSCc1ccc(CN(C)C)o1 [RANITIDINE]
stdout: 10.8

###

species: Rattus norvegicus; test: Open TG-GATES - Regimen: Single; format: toxicity, organism-based, Sprague-Dawley; parameters: regimen Single, gender Male, age 6 weeks; details: in vivo, po, 1000 mg/kg, 6 h, tissue Plasma, route gavage, dose level High
property: A/G
Response field accepts a number only; no unit should be typed.

Example results:
structure-as-smiles	observed-value
CN/C(=N/CCSCc1nc[nH]c1C)NC#N	1.5
Cc1nnc2n1-c1ccc(Cl)cc1C(c1ccccc1Cl)=NC2	0.9
CNC(=C[N+](=O)[O-])NCCSCc1ccc(CN(C)C)o1	1.7

The record that follows has no A/G shown yet.
stdin: Provide one value: measured A/G of O=C(OC[C@H]1O[C@@H](OC(=O)c2cc(O)c(O)c(OC(=O)c3cc(O)c(O)c(O)c3)c2)[C@H](OC(=O)c2cc(O)c(O)c(OC(=O)c3cc(O)c(O)c(O)c3)c2)[C@@H](OC(=O)c2cc(O)c(O)c(OC(=O)c3cc(O)c(O)c(O)c3)c2)[C@@H]1OC(=O)c1cc(O)c(O)c(OC(=O)c2cc(O)c(O)c(O)c2)c1)c1cc(O)c(O)c(OC(=O)c2cc(O)c(O)c(O)c2)c1
stdout: 1.8

###

Listing of entries alongside the reported CRE.
species on record: Rattus norvegicus; assay: Open TG-GATES - Regimen: Single; assay type: toxicity, organism-based, Sprague-Dawley; set-up: regimen Single, gender Male, age 6 weeks; details: in vivo, po, 300 mg/kg, 6 h, tissue Plasma, route gavage, dose level Middle
Supply the numeric figure in mg/dL, leaving out any unit text.

Example results:
structure-as-smiles	u	CRE
CNC(=C[N+](=O)[O-])NCCSCc1ccc(CN(C)C)o1	mg/dL	0.4
O=C(OC[C@H]1O[C@@H](OC(=O)c2cc(O)c(O)c(OC(=O)c3cc(O)c(O)c(O)c3)c2)[C@H](OC(=O)c2cc(O)c(O)c(OC(=O)c3cc(O)c(O)c(O)c3)c2)[C@@H](OC(=O)c2cc(O)c(O)c(OC(=O)c3cc(O)c(O)c(O)c3)c2)[C@@H]1OC(=O)c1cc(O)c(O)c(OC(=O)c2cc(O)c(O)c(O)c2)c1)c1cc(O)c(O)c(OC(=O)c2cc(O)c(O)c(O)c2)c1	mg/dL	0.5
CN/C(=N/CCSCc1nc[nH]c1C)NC#N	mg/dL	0.4
Cc1nnc2n1-c1ccc(Cl)cc1C(c1ccccc1Cl)=NC2	mg/dL	0.1

The record that follows has no CRE shown yet.
stdin: Provide one value: measured CRE of COC(=O)C1=C(C)NC(C)=C(C(=O)OC)C1c1ccccc1[N+](=O)[O-]
stdout: 0.2

###

species: Rattus norvegicus; assay: Open TG-GATES - Regimen: Single; format: toxicity, organism-based, Sprague-Dawley; set-up: regimen Single, gender Male, age 6 weeks; conditions: in vivo, po, 0 mg/kg, 24 h, tissue Plasma, route gavage, dose level Control
Listing of entries alongside the reported DBIL.
Supply the numeric figure in mg/dL, leaving out any unit text.

molecule	u	observed-value
Nc1c2c(nc3ccccc13)CCCC2 [TACRINE]	mg/dL	0.008
CCCc1cc(=O)[nH]c(=S)[nH]1 [PROPYLTHIOURACIL]	mg/dL	0.016

stdin: Provide one value: measured DBIL of Cc1nnc2n1-c1ccc(Cl)cc1C(c1ccccc1Cl)=NC2 [TRIAZOLAM]
stdout: 0.01

stdin: Provide one value: measured DBIL of COC(=O)C1=C(C)NC(C)=C(C(=O)OC)C1c1ccccc1[N+](=O)[O-] [NIFEDIPINE]
stdout: 0.018

###

species on record: Rattus norvegicus; experiment: Open TG-GATES - Regimen: Daily Repeat; assay type: toxicity, organism-based, Sprague-Dawley; design: regimen Daily Repeat, gender Male, age 6 weeks; details: in vivo, po, 300 mg/kg, 72 h, tissue Blood, route gavage, dose level Middle, time 3 day
Listing of entries alongside the reported MCH.
Supply the numeric figure in pg, leaving out any unit text.

Example results:
structure-as-smiles	property	observed-value
CCOc1ccc(NC(C)=O)cc1	MCH	19.9
COC(=O)C1=C(C)NC(C)=C(C(=O)OC)C1c1ccccc1[N+](=O)[O-]	MCH	21.3
CN/C(=N/CCSCc1nc[nH]c1C)NC#N	MCH	21.3
CNC(=C[N+](=O)[O-])NCCSCc1ccc(CN(C)C)o1	MCH	21.9

stdin: Provide one value: measured MCH of Cc1nnc2n1-c1ccc(Cl)cc1C(c1ccccc1Cl)=NC2
stdout: 21.6

stdin: Provide one value: measured MCH of O=C(OC[C@H]1O[C@@H](OC(=O)c2cc(O)c(O)c(OC(=O)c3cc(O)c(O)c(O)c3)c2)[C@H](OC(=O)c2cc(O)c(O)c(OC(=O)c3cc(O)c(O)c(O)c3)c2)[C@@H](OC(=O)c2cc(O)c(O)c(OC(=O)c3cc(O)c(O)c(O)c3)c2)[C@@H]1OC(=O)c1cc(O)c(O)c(OC(=O)c2cc(O)c(O)c(O)c2)c1)c1cc(O)c(O)c(OC(=O)c2cc(O)c(O)c(O)c2)c1
stdout: 21.6

###

species on record: Rattus norvegicus; test: Open TG-GATES - Regimen: Daily Repeat; type: toxicity, organism-based, Sprague-Dawley; design: regimen Daily Repeat, gender Male, age 6 weeks; settings: in vivo, po, 1000 mg/kg, […], tissue Plasma, route gavage, dose level High, time 14 day
Listing of entries alongside the reported PL.
Supply the numeric figure in mg/dL, leaving out any unit text.

Example results:
compound	PL (mg/dL)
CCOc1ccc(NC(C)=O)cc1 [PHENACETIN]	176.6
COC(=O)C1=C(C)NC(C)=C(C(=O)OC)C1c1ccccc1[N+](=O)[O-] [NIFEDIPINE]	161

stdin: Provide one value: measured PL of CN/C(=N/CCSCc1nc[nH]c1C)NC#N [CIMETIDINE]
stdout: 165.6

stdin: Provide one value: measured PL of CNC(=C[N+](=O)[O-])NCCSCc1ccc(CN(C)C)o1 [RANITIDINE]
stdout: 137.8

###

organism: Rattus norvegicus; assay: Open TG-GATES - Regimen: Single; format: toxicity, organism-based, Sprague-Dawley; set-up: regimen Single, gender Male, age 6 weeks; conditions: in vivo, po, 300 mg/kg, 9 h, tissue Plasma, route gavage, dose level Middle
Listing of entries alongside the reported Cl.
Supply the numeric figure in meq/L, leaving out any unit text.

Example results:
structure-as-smiles	observed-value
O=C(OC[C@H]1O[C@@H](OC(=O)c2cc(O)c(O)c(OC(=O)c3cc(O)c(O)c(O)c3)c2)[C@H](OC(=O)c2cc(O)c(O)c(OC(=O)c3cc(O)c(O)c(O)c3)c2)[C@@H](OC(=O)c2cc(O)c(O)c(OC(=O)c3cc(O)c(O)c(O)c3)c2)[C@@H]1OC(=O)c1cc(O)c(O)c(OC(=O)c2cc(O)c(O)c(O)c2)c1)c1cc(O)c(O)c(OC(=O)c2cc(O)c(O)c(O)c2)c1	105.4
Cc1nnc2n1-c1ccc(Cl)cc1C(c1ccccc1Cl)=NC2	104.4
COC(=O)C1=C(C)NC(C)=C(C(=O)OC)C1c1ccccc1[N+](=O)[O-]	100.8
CNC(=C[N+](=O)[O-])NCCSCc1ccc(CN(C)C)o1	103.8

stdin: Provide one value: measured Cl of CN/C(=N/CCSCc1nc[nH]c1C)NC#N
stdout: 102
